Items are presented alongside their recorded cell viability.
# Tested on: myeloid leukemia patient primary cells Pat.3
# protocol: cell viability (% survival relative to DMSO control); higher = less cytotoxic
# recorded.conditions: 10000 nM; 72 h
Expressed in %, but write only the number.

See these solved cases before continuing.
Fc1ccc(CNc2ncnc3ccc(F)cc23)cc1 [Spautin 1]    69.9
CCC(CC#N)OC(=O)N[C@@H](C)c1cccc(NC(=O)Nc2ccc(-c3cnco3)c(OC)c2)c1 (stereo in doubt) [AVN-944]    20
C=C1NC(=O)c2cc(CN(C)c3ccc(C(=O)N[C@@H](CCC(=O)O)C(=O)O)s3)ccc2N1 [Raltitrexed]    58.7

Could you now consider this next compound?
Input: Consider the compound O=c1[nH]c(=O)n([C@H]2C[C@H](O)[C@@H](CO)O2)cc1I [Idoxuridine] and give its measured cell viability.
Output: 95.1

====

Items are presented alongside their recorded IC50 (cell viability).
# Test system: MV4-11
# recorded.conditions: 72 h

CCC(CC#N)OC(=O)N[C@@H](C)c1cccc(NC(=O)Nc2ccc(-c3cnco3)c(OC)c2)c1 (stereo in doubt)    0.0781 µM

Input: Consider the compound `COc1cc(/C=C/c2ccc(OC)cc2OC)cc(OC)c1` and give its measured IC50 (cell viability).
Output: > 10 µM

Input: Consider the compound `CC(C)(CCCCCCCCCCC(C)(C)CC(=O)O)CC(=O)O` and give its measured IC50 (cell viability).
Output: > 10 µM

Input: Consider the compound `Cc1nc(-c2ccc(OCC(C)C)c(C#N)c2)sc1C(=O)O` and give its measured IC50 (cell viability).
Output: > 10 µM

Input: Consider the compound `CN1CC(=O)N2[C@H](c3ccc4c(c3)OCO4)c3[nH]c4ccccc4c3C[C@@H]2C1=O` and give its measured IC50 (cell viability).
Output: > 10 µM

Input: Consider the compound NC(CCC(=O)NC(CSCc1ccc(Br)cc1)C(=O)NCC(=O)OC1CCCC1)C(=O)OC1CCCC1 (stereo not given) and give its measured IC50 (cell viability).
Output: > 10 µM

Input: Consider the compound `CCCCCCCCCCCCCCOc1ccc(C(=O)O)o1` and give its measured IC50 (cell viability).
Output: > 10 µM

====

# Test system: HEL
# protocol: cell viability (% survival relative to DMSO control, bortezomib = 0%); higher = less cytotoxic
# recorded.conditions: 10000 nM; 72 h
measured.endpoint: cell viability
Please answer using the number first and the unit second.

See these solved cases before continuing.
O[C@H]1[C@H](O)[C@@H](O)CN2CC[C@H](O)[C@H]12    112%
OCC(CO)N[C@H]1C[C@](O)(CO)[C@@H](O)[C@H](O)[C@H]1O    118%
CN(C)C(=O)n1nnnc1Cc1ccc(-c2ccccc2)cc1    1.09%
N#Cc1ccc(C2CCCc3cncn32)cc1 (configuration not stated)    111%

Input: Consider the molecule `O=c1oc2c(cc1O)oc(=O)c1cc(O)c(O)c(O)c12` and give its measured cell viability.
Output: 107%

Input: Consider the molecule `O=C(c1c2ccccc2cc2ccccc12)N1CCC(N2CCC[C@@H](C(=O)N3CCOCC3)C2)CC1` and give its measured cell viability.
Output: 94.7%

Input: Consider the molecule Cn1c2cc(S(C)=O)sc2c2cnn(Cc3cccc(N)c3)c(=O)c21 (configuration not stated) and give its measured cell viability.
Output: 84%

Input: Consider the molecule `c1ccc2nc(-c3nnc4sc(-c5cnccn5)nn34)ccc2c1` and give its measured cell viability.
Output: 99.4%

Input: Consider the molecule `CC(C)(O)CNc1nc(Nc2ccnc(C(F)(F)F)c2)nc(-c2cccc(C(F)(F)F)n2)n1` and give its measured cell viability.
Output: 85.6%
